All figures here come from PubChem BioAssay (NCI).

# Test system: CCRF-CEM leukemia
# experimentSummary: NCI tumour cell line growth inhibition, 48 h
assayMetric: TGI

{"columns": ["compound", "TGI"],
 "data": [
  ["O=C1N(Cl)C(=O)C(c2ccc(Cl)cc2)(c2ccc(Cl)cc2)N1Cl", "60.9 µM"],
  ["Cn1c(=O)c2c3ccccc3n(C)c2n(C)c1=O", "> 100 µM"],
  ["COc1ccc(NC(=O)c2cc(OC)cc(OC)c2)cc1", "> 100 µM"],
  ["CC1=NN(c2nc(N)nc(/C(C#N)=C/c3ccccc3O)n2)C(C)(C)C1", "35.5 µM"],
  ["CC(=O)NC1=C(NCC(C)(C)C)C(=O)c2ccccc2C1=O", "> 100 µM"],
  ["NC(=O)c1ccc(C(=O)Nc2ccc([As](=O)(O)O)cc2)cc1", "> 100 µM"]
]}

Batch lookup, TGI per entry.
1. O=C(O)C(Cc1ccccc1)N1C(=O)N/C(=C\c2ccc(F)cc2)C1=O (configuration not stated)
2. O=C(Nc1ccccc1)OCCN=C1c2ccccc2C(Br)C(Br)c2ccccc21 (configuration not stated)
3. C=C(CNCCO)[C@@H]1CC[C@]2(CO)CC[C@]3(C)[C@H](CC[C@@H]4[C@@]5(C)CCC(N)C(C)(C)[C@@H]5CC[C@]43C)[C@@H]12 (some centres not stated)
4. CC(C)=C1C(=O)C[C@]2(C)C[C@H]3O[C@]3(C)CC[C@@H]3O[C@@]3(C)CC[C@@H]12
5. N/C(=N\N=C/c1ccc(O)c(O)c1O)NO

stdout:
["> 100 µM", "5.3 µM", "5.93 µM", "> 50 µM", "> 58.1 µM"]

Batch lookup, TGI per entry.
1. O=[N+]([O-])c1cccc2nc3ccccc3c(NCCCCNc3c4ccccc4nc4cccc([N+](=O)[O-])c34)c12
2. CSC1=C(C#N)C(=S)N=C(N)C1C(=O)Nc1ccc(C)cc1 (configuration not stated)
3. COc1ccc(NC(=S)Nc2cc(C)cc(C)n2)cc1
4. C=C1C(=O)[C@@]23CC[C@H]4[C@@](C)(CCC[C@@]4(C)C(=O)OC)[C@@H]2CC[C@]1(O)C3
5. O=C1C=Cc2c(Br)sc(Br)c21
6. COC(=O)Nc1nc2ccc(S(=O)c3ccccc3)cc2[nH]1 (configuration not stated)

stdout:
1. 0.0892 µM
2. > 100 µM
3. > 100 µM
4. > 100 µM
5. 11.3 µM
6. > 100 µM

====

# Tested on: OVCAR-5 ovarian
# experimentSummary: NCI tumour cell line growth inhibition, 48 h
Provide the recorded TGI for the entries that follow.

Consider the worked cases shown below.
{"columns": ["molecule", "TGI"],
 "data": [
  ["Clc1cccc(Cc2cn3cc(-c4ccccc4)nc3s2)c1Cl", "> 100 µM"],
  ["O=c1c2cccnc2n2n1Cc1ccccc1C2", "> 100 µM"],
  ["CCOC(=O)COc1cccc2c1C(=O)CCO2", "> 100 µM"]
]}

Batch lookup, TGI per entry.
1. O=C1NC(N/N=C/C(O)C(O)C(O)C(O)CO)=N/C1=C\c1ccco1 (configuration not stated)
2. C[C@@H](CS(C)(=O)=O)Nc1ncc2cc(Oc3ccc(F)cc3F)c(=O)n(C)c2n1
3. CN(C)c1ccc(-c2cc(-c3ccc(Nc4nc(Nc5ccc(Cl)cc5)nc(Nc5ccc(Cl)cc5)n4)cc3)no2)cc1
4. CC1=CC(=O)[C@@H](O)[C@]2(C)[C@H]3[C@@]4(O)OC[C@]35[C@H]([C@@H](C)[C@H]4O)[C@@H](OC(=O)C(C)(C)CO)C(=O)O[C@@H]5C[C@@H]12
5. Oc1ccc(Cl)cc1-c1cc(-c2ccccc2Cl)[nH]n1
6. CC1=C(C(=O)Nc2ccccc2C)C(c2ccco2)C(C(=O)Nc2ccccc2C)=C(C)N1C

stdout:
> 100 µM
> 25 µM
50.2 µM
23.3 µM
> 100 µM
> 100 µM

Batch lookup, TGI per entry.
1. COc1ccc(C2=CSc3cc(Cl)c(C)cc3S(=O)(=O)N2C(C)=O)cc1
2. Cc1ccc(S(=O)(=O)NC(=O)NC(CC(N)=O)C(=O)O)cc1 (configuration not stated)
3. CN1Cc2ccccc2S(=O)(=O)n2cccc2C1=O
4. NC1c2c(Br)sc(N3CCCC3)c2C(=O)C1O (configuration not stated)

stdout:
1. > 100 µM
2. > 100 µM
3. > 100 µM
4. > 50 µM

Batch lookup, TGI per entry.
1. CN1CCc2cc3c(c4c2C1C(O)c1ccccc1-4)OCO3 (configuration not stated)
2. CCOC(=O)Nc1nc2ccc(OCC)cc2s1
3. COc1cc2nc(C)nc(N[C@H](C)c3cc(N)cc(C(F)(F)F)c3)c2cc1O[C@H]1CCOC1
4. C=CCc1cc(OC)c2c(c1)C(O)CC(c1ccc(OC)c(OC)c1)O2 (configuration not stated)
5. Cc1cc2nc(C(Cl)Cl)nc(-c3ccc(Cl)cc3)n2n1
6. C1=CC2(C=CC13O[C@H](C1CCCCC1)[C@@H](C1CCCCC1)O3)O[C@H](C1CCCCC1)[C@@H](C1CCCCC1)O2
7. CSC1=C(C#N)C(=S)N=C(N)C1C(=O)Nc1ccc(C)cc1 (configuration not stated)
8. CC1(C)OC(=O)C(=Cc2ccc(O)cc2)C(=O)O1

stdout:
["44.4 µM", "> 100 µM", "28.5 µM", "> 100 µM", "5.56 µM", "> 50 µM", "> 100 µM", "> 100 µM"]

Batch lookup, TGI per entry.
1. CN(CC(=O)O)S(=O)(=O)c1ccc2ccccc2c1
2. COc1ccccc1NC(=O)CC(=O)n1nc(C)c(N=Nc2ccccc2C(=O)O)c1C
3. CSCCCN(CCCSC)CCCSC
4. O=c1n(CC2CO2)c(=O)n(CC2CO2)n1CC1CO1 (configuration not stated)
5. O=C(N/C(=C\c1cc(Cl)ccc1Cl)c1nc2[nH]c(=S)[nH]c(=O)c2[nH]1)c1ccccc1
6. O=C(CCl)N1c2ccccc2Oc2ccc3ccccc3c21
7. Cc1nnc2n1N=C(c1ccccc1)/C(=C/c1ccc(-c3ccc(Cl)cc3)o1)S2
8. Cc1cnc(NC(=O)C(Cc2ccccc2)NC(=O)c2ccccc2)s1 (configuration not stated)

stdout:
> 100 µM
> 100 µM
> 100 µM
> 100 µM
> 100 µM
3.59 µM
39.9 µM
63.7 µM
